Reference source: ChEMBL document CHEMBL1201862

Please provide measured EC50 for the entries that follow.
Test: DRD fibroblast viability loss – cell-based, non-viral oncogenic, luminescence, dose response (AID 1934)
Assay type: functional
Conditions: Homo sapiens
Calls of active or inactive are those of the source.

Take a look at these entries with their results.
| chemical-smiles | EC50 |
| --- | --- |
| Cc1cc(C)c(S(=O)(=O)Nc2ccc3c4c(cccc24)CC3)c(C)c1 | 0.383 µM (inconclusive) |
| CCOC(=O)c1[nH]c(C)c(C(=O)c2ccc(C)cc2)c1C | 3.16 µM (active) |
| O=C(c1ccc(Cl)cc1)c1cc([N+](=O)[O-])ccc1N1CCOCC1 | 1.17 µM (active) |

Give one value of EC50 per listed molecule.
1. CC(/C=N/NC(=O)c1[nH]nc2c1CCC2)=C\c1ccccc1
2. COc1cc(/C=C/C(=O)c2ccc3c(c2)OCCO3)cc(Br)c1OCC(=O)N(C)C

Result string:
1: 0.43 µM (active); 2: 5.43 µM (inconclusive)

====

Molecular target: Corticotropin-releasing factor receptor 2/Corticotropin-releasing factor-binding protein (Homo sapiens, UniProt P24387+Q13324)
Sequence (Q13324 whole entry): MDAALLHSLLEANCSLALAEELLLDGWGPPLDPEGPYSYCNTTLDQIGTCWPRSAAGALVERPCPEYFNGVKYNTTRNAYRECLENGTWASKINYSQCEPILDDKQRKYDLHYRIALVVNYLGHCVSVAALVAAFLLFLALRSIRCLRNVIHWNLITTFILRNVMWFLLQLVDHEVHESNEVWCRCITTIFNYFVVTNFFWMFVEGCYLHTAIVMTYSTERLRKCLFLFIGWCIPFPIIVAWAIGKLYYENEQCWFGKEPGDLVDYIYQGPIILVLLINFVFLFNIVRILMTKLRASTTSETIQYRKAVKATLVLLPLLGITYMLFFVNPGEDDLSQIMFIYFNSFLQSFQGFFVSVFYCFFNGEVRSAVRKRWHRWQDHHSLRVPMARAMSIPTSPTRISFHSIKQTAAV
Sequence (P24387 whole entry): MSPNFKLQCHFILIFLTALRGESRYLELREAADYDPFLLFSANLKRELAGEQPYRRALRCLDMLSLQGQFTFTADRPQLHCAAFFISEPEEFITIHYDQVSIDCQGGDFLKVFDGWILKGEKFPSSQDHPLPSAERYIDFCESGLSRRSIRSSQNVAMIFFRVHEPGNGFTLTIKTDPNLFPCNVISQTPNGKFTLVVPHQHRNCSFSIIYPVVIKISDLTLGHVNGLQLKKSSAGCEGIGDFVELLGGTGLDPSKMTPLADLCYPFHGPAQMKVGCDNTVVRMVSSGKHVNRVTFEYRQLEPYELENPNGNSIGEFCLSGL
Assay: Dose Response confirmation of uHTS hits for small molecule antagonists of the CRF-binding protein and CRF-R2 receptor complex.
Assay type: functional
Conditions: read-out: IC50_Mean
Activity calls are given as the source filed them.
// allowed return values: 1 (active), -1 (inactive)

Query string: Name the outcome recorded for Clc1ccc(-c2nnc(NCc3ccccc3)c3ccccc23)cc1 in the assay.
Result string: -1

Query string: Name the outcome recorded for COc1ccc(C(=O)Nc2ccc3nc4n(c(=O)c3c2)CCCCC4)cc1OC in the assay.
Result string: -1

Query string: Name the outcome recorded for CCN(CC)S(=O)(=O)c1ccc2c(c1)N(CC(=O)NCc1ccco1)C(=O)CO2 in the assay.
Result string: -1

Query string: Name the outcome recorded for Cc1ccc(C(=O)NCc2cccnc2)o1 in the assay.
Result string: -1

Query string: Name the outcome recorded for O=C(CCN1CCCCC1)c1ccc2c(c1)OCO2 in the assay.
Result string: -1

Query string: Name the outcome recorded for CCOc1cc(C)ccc1OCc1nnc(SCC(=O)c2cccc([N+](=O)[O-])c2)n1C in the assay.
Result string: 1

Query string: Name the outcome recorded for O=S(=O)(NC(=S)NC1CCCCC1)c1ccc(Br)cc1 in the assay.
Result string: -1

Query string: Name the outcome recorded for CN(Cc1cccc(Cl)c1)C(=O)C1CCC(=O)N(C2CC2)C1 (stereo unspecified) in the assay.
Result string: -1

Query string: Name the outcome recorded for CC(C)COc1ccc(CN=C(S)Nc2ccccc2)cc1Cl in the assay.
Result string: -1

Query string: Name the outcome recorded for CCN(CC(=O)Nc1c(F)cccc1F)C(=O)c1ccc(S(=O)(=O)N2CCC(C)CC2)cc1 in the assay.
Result string: -1

Query string: Name the outcome recorded for Cc1ccc(N(C(=O)Cn2nnc(-c3ccccc3F)n2)C(C(=O)NC2CCCC2)c2ccncc2)cc1 (stereo unspecified) in the assay.
Result string: -1

====

Target: Short transient receptor potential channel 4 (Mus musculus)
Sequence (Q9QUQ5 whole entry): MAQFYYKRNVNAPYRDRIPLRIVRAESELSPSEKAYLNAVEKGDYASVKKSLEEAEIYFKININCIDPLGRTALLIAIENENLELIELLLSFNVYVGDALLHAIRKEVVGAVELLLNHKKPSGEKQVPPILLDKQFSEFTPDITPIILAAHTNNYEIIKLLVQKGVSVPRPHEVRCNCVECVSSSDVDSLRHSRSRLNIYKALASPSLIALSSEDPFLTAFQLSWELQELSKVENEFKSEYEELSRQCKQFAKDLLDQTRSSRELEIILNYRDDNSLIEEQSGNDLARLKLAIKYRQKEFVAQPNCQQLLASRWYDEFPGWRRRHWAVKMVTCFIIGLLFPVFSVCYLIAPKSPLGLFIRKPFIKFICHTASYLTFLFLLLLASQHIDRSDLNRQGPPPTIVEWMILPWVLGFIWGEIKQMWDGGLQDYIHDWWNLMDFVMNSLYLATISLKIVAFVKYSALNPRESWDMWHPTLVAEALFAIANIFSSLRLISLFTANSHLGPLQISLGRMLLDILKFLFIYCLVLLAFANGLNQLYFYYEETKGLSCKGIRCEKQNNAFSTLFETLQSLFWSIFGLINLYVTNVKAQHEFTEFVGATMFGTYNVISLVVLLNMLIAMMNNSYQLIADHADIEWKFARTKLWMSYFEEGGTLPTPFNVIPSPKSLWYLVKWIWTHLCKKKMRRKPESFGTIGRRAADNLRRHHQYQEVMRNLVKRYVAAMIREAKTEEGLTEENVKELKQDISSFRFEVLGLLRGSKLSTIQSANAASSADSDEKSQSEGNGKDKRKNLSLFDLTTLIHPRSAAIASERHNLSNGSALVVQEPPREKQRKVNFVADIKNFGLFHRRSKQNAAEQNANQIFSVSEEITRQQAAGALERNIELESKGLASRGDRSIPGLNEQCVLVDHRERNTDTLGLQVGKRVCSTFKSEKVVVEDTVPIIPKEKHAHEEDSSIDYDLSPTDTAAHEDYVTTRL
Experiment: calcium entry via TRPC4 opening agents – cell-based, HEK293 TRPC4/mu-opioid, Fluo-4 calcium, dose response (AID 434937)
Type: functional
Activity calls are given as the source filed them.
readout-kind: EC50

| compound | EC50 |
| --- | --- |
| CC(c1cccnc1)N(CCN(C)C)C(=O)Nc1ccc(Cl)c(Cl)c1 (stereo unspecified) | 1500 nM (active) |
| Cc1ccc(C)c(OCCCCn2ccnc2)c1 | 4730 nM (active) |

Give one value of EC50 per listed compound.
1. COc1ccc(C(CNC(=O)c2ccc3c(c2)CCC3)N(C)C)cc1 (stereo unspecified)
2. CCOC(=O)C1(CCc2ccccc2)CCN(Cc2csc(C(C)=O)c2)CC1
3. Cn1c(N2CCN(C(=O)Nc3ccc(F)cc3)CC2)nc2ccccc21

Result string:
1: 5.3 nM (active); 2: 841 nM (active); 3: 6680 nM (active)

Query string: What value of EC50 has been reported for the following compound? CCCN(CCC)CCCNc1ccc2nnc(-c3ccc(F)cc3)n2n1
Result string: 596 nM (active)
